Data origin, for the record: patent US20120094998A1

Listing of recorded C-kit AVG % Activity at 1.0E−06 by entry.
- Target System: UniProt:P10721
- Assay Comment: Off-chip mobility-shift kinase assay (Caliper LABCHIP), C-kit
- Details: concentration 1.0E−06
# number then unit; no other words

Identify C-kit AVG % Activity at 1.0E−06 associated with the compound COCCOCCOCCOCCOCCOCCOCCN1CCN(Cc2ccc(C(=O)Nc3ccc(C)c(Nc4nccc(-c5cccnc5)n4)c3)cc2)CC1
69%

For the compound COCCOCCOCCOCCOCCNCc1ccc(C(=O)Nc2ccc(C)c(Nc3nccc(-c4cccnc4)n3)c2)cc1 , give its reported C-kit AVG % Activity at 1.0E−06.
28%

Give C-kit AVG % Activity at 1.0E−06 for the following compound: COCCOCCOCCOCCOCCOCCOCCNCc1ccc(C(=O)Nc2ccc(C)c(Nc3nccc(-c4cccnc4)n3)c2)cc1
50%

Find the measured C-kit AVG % Activity at 1.0E−06 of COCCOCCOCCOCCOCCOCCOCCOCCOCCNCc1ccc(C(=O)Nc2ccc(C)c(Nc3nccc(-c4cccnc4)n3)c2)cc1 and report it.
62%

---
Check the records and state C-kit AVG % Activity at 1.0E−06 for COCCOCCOCCOCCOCCOCCOCCOCCOCCN1CCN(Cc2ccc(C(=O)Nc3ccc(C)c(Nc4nccc(-c5cccnc5)n4)c3)cc2)CC1
35%

====

- Target System: cKIT (Homo sapiens, UniProt P10721)
- Sequence (P10721 26-976): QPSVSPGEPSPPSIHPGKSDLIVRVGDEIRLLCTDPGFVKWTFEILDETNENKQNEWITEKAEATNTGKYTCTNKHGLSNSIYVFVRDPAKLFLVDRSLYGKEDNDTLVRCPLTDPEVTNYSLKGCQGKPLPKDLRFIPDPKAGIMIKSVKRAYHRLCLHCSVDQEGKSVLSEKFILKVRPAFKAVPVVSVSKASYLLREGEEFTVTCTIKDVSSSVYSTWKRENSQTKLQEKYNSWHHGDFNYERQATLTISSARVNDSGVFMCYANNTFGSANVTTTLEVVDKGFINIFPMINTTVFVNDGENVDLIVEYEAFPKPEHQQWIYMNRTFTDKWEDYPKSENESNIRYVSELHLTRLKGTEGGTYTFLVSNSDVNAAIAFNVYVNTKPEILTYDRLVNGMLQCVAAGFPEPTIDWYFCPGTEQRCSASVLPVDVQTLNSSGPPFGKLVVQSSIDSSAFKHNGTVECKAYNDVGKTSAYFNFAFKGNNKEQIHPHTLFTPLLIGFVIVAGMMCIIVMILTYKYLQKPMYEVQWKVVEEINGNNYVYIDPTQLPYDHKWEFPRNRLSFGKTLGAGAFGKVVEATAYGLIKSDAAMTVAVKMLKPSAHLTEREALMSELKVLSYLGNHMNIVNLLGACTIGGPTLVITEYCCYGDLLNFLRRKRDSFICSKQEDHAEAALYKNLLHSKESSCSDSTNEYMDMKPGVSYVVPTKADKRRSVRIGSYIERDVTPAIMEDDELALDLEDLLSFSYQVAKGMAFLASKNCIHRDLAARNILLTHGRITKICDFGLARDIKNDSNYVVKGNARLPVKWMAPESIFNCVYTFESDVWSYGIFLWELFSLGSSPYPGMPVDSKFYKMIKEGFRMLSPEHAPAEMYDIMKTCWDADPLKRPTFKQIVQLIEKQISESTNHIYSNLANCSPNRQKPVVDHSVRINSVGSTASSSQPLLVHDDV
Result Type: pIC50
Convention used: pIC50 is expressed as -log10 of the molar concentration.

Report pIC50 from cKIT (Homo sapiens, UniProt P10721) testing of COCCOCCOCCOCCOCCOCCOCCNCc1ccc(C(=O)Nc2ccc(C)c(Nc3nccc(-c4cccnc4)n3)c2)cc1
6.00

====

Each entry below carries its reported C-kit AVG % Activity at 1.0E−05.
- Target System: UniProt P10721
- Assay Comment: Off-chip mobility-shift kinase assay (Caliper LABCHIP), C-kit
- Details: concentration 1.0E−05

A selection of reference data follows.
Supply measured C-kit AVG % Activity at 1.0E−05 of COCCOCCOCCOCCOCCNCc1ccc(C(=O)Nc2ccc(C)c(Nc3nccc(-c4cccnc4)n3)c2)cc1 [mPEG5-N-Imatinib] in your reply.
1%

Provide one value: measured C-kit AVG % Activity at 1.0E−05 of COCCOCCOCCOCCOCCOCCOCCNCc1ccc(C(=O)Nc2ccc(C)c(Nc3nccc(-c4cccnc4)n3)c2)cc1
6%

Provide measured C-kit AVG % Activity at 1.0E−05 value, entry: COCCOCCOCCOCCOCCOCCOCCN1CCN(Cc2ccc(C(=O)Nc3ccc(C)c(Nc4nccc(-c5cccnc5)n4)c3)cc2)CC1 [mPEG7-N′-Imatinib]
16%

Further cases:
For COCCOCCOCCOCCOCCOCCOCCOCCOCCNCc1ccc(C(=O)Nc2ccc(C)c(Nc3nccc(-c4cccnc4)n3)c2)cc1 [mPEG9-N-Imatinib] , write its C-kit AVG % Activity at 1.0E−05.
9%

Query C-kit AVG % Activity at 1.0E−05 for COCCOCCOCCOCCOCCOCCOCCOCCOCCN1CCN(Cc2ccc(C(=O)Nc3ccc(C)c(Nc4nccc(-c5cccnc5)n4)c3)cc2)CC1 [mPEG9-N′-Imatinib]
2%

====

- Target System: ABL (Homo sapiens)
- Sequence (P00519 whole entry): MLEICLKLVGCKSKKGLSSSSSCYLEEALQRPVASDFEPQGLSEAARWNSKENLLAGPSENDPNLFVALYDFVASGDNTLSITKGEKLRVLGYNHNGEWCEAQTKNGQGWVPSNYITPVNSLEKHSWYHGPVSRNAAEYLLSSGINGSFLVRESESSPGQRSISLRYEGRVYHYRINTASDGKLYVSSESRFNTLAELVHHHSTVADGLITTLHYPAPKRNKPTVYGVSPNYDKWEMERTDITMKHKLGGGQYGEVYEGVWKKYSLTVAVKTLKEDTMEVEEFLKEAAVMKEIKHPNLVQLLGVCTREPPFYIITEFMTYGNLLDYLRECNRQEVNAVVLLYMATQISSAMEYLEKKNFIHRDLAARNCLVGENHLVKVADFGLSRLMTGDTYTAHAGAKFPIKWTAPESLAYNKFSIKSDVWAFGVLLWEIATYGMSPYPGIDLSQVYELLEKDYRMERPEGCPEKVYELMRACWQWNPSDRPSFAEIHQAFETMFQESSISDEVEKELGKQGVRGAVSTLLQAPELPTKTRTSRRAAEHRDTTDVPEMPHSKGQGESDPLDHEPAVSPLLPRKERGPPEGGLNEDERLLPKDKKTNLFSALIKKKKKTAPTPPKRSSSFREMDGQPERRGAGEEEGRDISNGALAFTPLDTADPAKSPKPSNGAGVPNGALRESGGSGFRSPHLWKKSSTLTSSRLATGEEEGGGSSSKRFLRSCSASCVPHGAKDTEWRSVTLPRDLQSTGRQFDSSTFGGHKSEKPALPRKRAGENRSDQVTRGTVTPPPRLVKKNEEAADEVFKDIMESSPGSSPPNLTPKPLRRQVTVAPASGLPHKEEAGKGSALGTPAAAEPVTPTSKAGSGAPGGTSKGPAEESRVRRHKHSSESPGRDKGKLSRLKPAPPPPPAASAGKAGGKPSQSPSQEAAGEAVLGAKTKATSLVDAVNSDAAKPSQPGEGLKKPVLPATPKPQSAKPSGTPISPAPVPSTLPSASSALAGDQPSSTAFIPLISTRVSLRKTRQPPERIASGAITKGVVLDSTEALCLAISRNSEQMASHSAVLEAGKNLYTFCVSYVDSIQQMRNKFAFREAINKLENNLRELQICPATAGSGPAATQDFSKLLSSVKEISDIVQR
- Assay Comment: Off-chip mobility-shift kinase assay (Caliper LABCHIP), ABL
- Details: concentration 1.0E−11; dasatinib-corresponding compounds
// reported ABL AVG % Activity at 1.0E−11 per item
Quick reminder: number only, in %, skip the unit.

Consider the molecule COCCOCCOCCOCC(=O)NC(C(=O)OCCN1CCN(c2cc(Nc3ncc(C(=O)Nc4c(C)cccc4Cl)s3)nc(C)n2)CC1)C(C)C (centres unmarked) tested on ABL (Homo sapiens); state its ABL AVG % Activity at 1.0E−11.
98

Provide ABL AVG % Activity at 1.0E−11, tested on ABL (Homo sapiens), for COCCOCCOCCOCC(=O)NC(CC(C)C)C(=O)OCCN1CCN(c2cc(Nc3ncc(C(=O)Nc4c(C)cccc4Cl)s3)nc(C)n2)CC1 (centres unmarked) .
99

Give ABL AVG % Activity at 1.0E−11 for this entry on ABL (Homo sapiens): COCCOCCOCCOCCOCCNC(=O)OCCN1CCN(c2cc(Nc3ncc(C(=O)Nc4c(C)cccc4Cl)s3)nc(C)n2)CC1
97

State ABL AVG % Activity at 1.0E−11 on ABL (Homo sapiens). Entry: COCCOCCOCCOCCOCCOCCOCCNC(=O)OCCN1CCN(c2cc(Nc3ncc(C(=O)Nc4c(C)cccc4Cl)s3)nc(C)n2)CC1
98

More entries:
Using ABL (Homo sapiens) as the test system, report measured ABL AVG % Activity at 1.0E−11 of COCCOCCOCCOCCOCCOCCOCCOCCOCCNC(=O)OCCN1CCN(c2cc(Nc3ncc(C(=O)Nc4c(C)cccc4Cl)s3)nc(C)n2)CC1 .
97
